test system: Hs 746T (human gastric carcinoma cell line); experiment: 48 hr CTG viability assay, Hs 746T; format: cell-based; conditions: Hs746T, 48 hr CTG, read-out: Hs 746T IC50
Reported IC50 values for the following compounds.

Recorded results for 6 compounds are shown here.
{"columns": ["compound", "endpointName", "result"],
 "data": [
  ["COc1ccccc1COCCC(=O)N[C@H]1CC(=O)N2CCCC(CCOc3ccc(C)c(c3)CNC(=O)[C@H](CCc3ccccc3)NC1=O)C2 (stereo partly drawn)", "IC50", "< 100 nM"],
  ["Cc1ccc2cc1CNC(=O)[C@H](CCc1ccccc1)NC(=O)[C@@H](NC(=O)N1CCCc3cc(N)ccc31)CC(=O)N1CCCC(CCO2)C1 (stereo partly drawn)", "IC50", "< 100 nM"],
  ["Cc1ccc2cc1CNC(=O)[C@H](CCc1ccccc1)NC(=O)[C@@H](NC(=O)CC1COC1)CC(=O)N1CCCC(CCO2)C1 (stereo partly drawn)", "IC50", "< 100 nM"],
  ["Cc1ccc2cc1CNC(=O)[C@H](CCc1ccccc1)NC(=O)[C@@H](NC(=O)NC1CCCCC1)CC(=O)N1CCCC(CCO2)C1 (stereo partly drawn)", "IC50", "< 100 nM"],
  ["Cc1ccc2cc1CNC(=O)[C@H](CCc1ccccc1)NC(=O)[C@@H](NC(=O)C1(CO)CCNCC1)CC(=O)N1CCCC(CCO2)C1 (stereo partly drawn)", "IC50", "500 to 1000 nM"],
  ["Cc1ccc2cc1CNC(=O)[C@H](CCc1ccccc1)NC(=O)[C@@H](NC(=O)CCNC(=O)c1ccc(N3CCOCC3)cc1)CC(=O)N1CCCC(CCO2)C1 (stereo partly drawn)", "IC50", "< 100 nM"]
]}

For this compound ( Cc1ccc2cc1CNC(=O)[C@H](CCc1ccccc1)NC(=O)[C@@H](N1CCCC1)CC(=O)N1CCCC(CCO2)C1 (stereo partly drawn) ), measured IC50 is 1000 to 5000 nM

For this compound ( COc1cccc(OCCC(=O)N[C@H]2CC(=O)N3CCCC(CCOc4ccc(C)c(c4)CNC(=O)[C@H](CCc4ccccc4)NC2=O)C3)c1 (stereo partly drawn) ), measured IC50 is < 100 nM

For this compound ( Cc1ccc2cc1CNC(=O)[C@H](CCc1ccccc1)NC(=O)[C@@H](NC(=O)CCNC(=O)C1CC3(CCC3)C1)CC(=O)N1CCCC(CCO2)C1 (stereo partly drawn) ), measured IC50 is < 100 nM

For this compound ( Cc1ccc2cc1CNC(=O)C(CCc1ccncc1)NC(=O)[C@@H](NC(=O)Cc1ccc(N)cc1C)CC(=O)N1CCCC(CCO2)C1 (stereo partly drawn) ), measured IC50 is < 100 nM

For this compound ( Cc1ccc2cc1CNC(=O)[C@H](CCc1ccccc1)NC(=O)[C@@H](NC(=O)CCOCCC1CC1)CC(=O)N1CCCC(CCO2)C1 (stereo partly drawn) ), measured IC50 is < 100 nM

For this compound ( Cc1ccc2cc1CNC(=O)[C@H](CCc1ccccc1)NC(=O)[C@@H](NC(=O)N1CCc3cc(N)ccc31)CC(=O)N1CCCC(CCO2)C1 (stereo partly drawn) ), measured IC50 is < 100 nM
